- TEST NAME: Comparison of oral absorption of K-13 (free base) and its methanesulfonate, plasma concentration-time and PK
- Format: in vivo, BALB/c mice
- CONDITION SET: BALB/c, mouse, plasma, po, 10 mg/kg, BALB/c mice, 10 mg · kg^−1 PO, analyte K-13-1; read-out: Tmax
PROPERTY MEASURED: Tmax

// returns reported Tmax for input COc1cc2nccc(Oc3ccc4c(c3)CCCN4C(=O)Nc3cccc(F)c3)c2cc1OC [K-13-1]
30 min

---

- TEST NAME: Comparison of oral absorption of K-13 (free base) and its methanesulfonate, plasma concentration-time and PK
- Type: in vivo, BALB/c mice
- CONDITION SET: BALB/c, mouse, plasma, po, 10 mg · kg^−1, BALB/c mice, 10 mg · kg^−1 PO, 8 h, animal PO-2; read-out: plasma Concentration of K-13-1, PO-2
PROPERTY MEASURED: concentration at 8 h (ng/mL)
Give your result in ng/mL as a bare value.

Entry COc1cc2nccc(Oc3ccc4c(c3)CCCN4C(=O)Nc3cccc(F)c3)c2cc1OC has what concentration at 8 h?
58.8

---

- TEST NAME: Comparison of oral absorption of K-13 (free base) and its methanesulfonate, plasma concentration-time and PK
- Format: in vivo, BALB/c mice
- CONDITION SET: BALB/c, mouse, plasma, po, 10 mg · kg^−1, BALB/c mice, 10 mg · kg^−1 PO, 8 h, mean; read-out: plasma Concentration of K-13-1, Mean
PROPERTY MEASURED: concentration at 8 h (ng/mL)
# output: bare number, implied unit ng/mL

Query (molecule): COc1cc2nccc(Oc3ccc4c(c3)CCCN4C(=O)Nc3cccc(F)c3)c2cc1OC ; field requested: concentration at 8 h
78

---

- TEST NAME: Comparison of oral absorption of K-13 (free base) and its methanesulfonate, plasma concentration-time and PK
- Type: in vivo, BALB/c mice
- CONDITION SET: BALB/c, mouse, plasma, po, 10 mg/kg, BALB/c mice, 10 mg · kg^−1 PO, analyte K-13-1
- Source text: Comparison of oral absorption of K-13 (free base) and its methanesulfonate (N-(3-fluorophenyl)-6-(6. 7-dimethoxyquinolin-4-oxy)-3.4-dihydroquinoline-1(2H)-carboxamide methanesulfonate)
PROPERTY MEASURED: half-life (h)
Answer with a number only, understood to be in h.

Can you share its half-life? I mean this molecule: COc1cc2nccc(Oc3ccc4c(c3)CCCN4C(=O)Nc3cccc(F)c3)c2cc1OC
3.5

---

- TEST NAME: Comparison of oral absorption of K-13 (free base) and its methanesulfonate, plasma concentration-time and PK
- Format: in vivo, BALB/c mice
- CONDITION SET: BALB/c, mouse, plasma, po, 10 mg · kg^−1, BALB/c mice, 10 mg · kg^−1 PO, 0 h, animal PO-2; read-out: plasma Concentration of K-13-1, PO-2
PROPERTY MEASURED: concentration at 0 h (ng/mL)
Unit ng/mL implied. Number only.

Return reported concentration at 0 h; argument: COc1cc2nccc(Oc3ccc4c(c3)CCCN4C(=O)Nc3cccc(F)c3)c2cc1OC [K-13-MS-1, methanesulfonate]
0

---

- TEST NAME: Comparison of oral absorption of K-13 (free base) and its methanesulfonate, plasma concentration-time and PK
- Assay type: in vivo, BALB/c mice
- CONDITION SET: BALB/c, mouse, plasma, po, 10 mg · kg^−1, BALB/c mice, 10 mg · kg^−1 PO, 24 h, animal PO-2; read-out: plasma Concentration of K-13-1, PO-2
PROPERTY MEASURED: concentration at 24 h
Please answer using a numeric value trailed by its unit.

Find the recorded concentration at 24 h belonging to COc1cc2nccc(Oc3ccc4c(c3)CCCN4C(=O)Nc3cccc(F)c3)c2cc1OC and report it.
4.65 ng/mL

src = patent US20250361209A1
